Give measured Mouse CD40/CD154 log IC50 for each item. Keep answers brief.
assayed.system: mouse CD40/CD154 (mCD40:mCD154) (Mus musculus, UniProt P27548)
Construct: (FLAG-tagged) mCD154 (recombinant mouse CD40L, soluble, Alexis Biochemicals); purchased R&D Systems (mCD40/Fc); Alexis Biochemicals (mCD154)
Sequence (P27548 112-260 limits assumed): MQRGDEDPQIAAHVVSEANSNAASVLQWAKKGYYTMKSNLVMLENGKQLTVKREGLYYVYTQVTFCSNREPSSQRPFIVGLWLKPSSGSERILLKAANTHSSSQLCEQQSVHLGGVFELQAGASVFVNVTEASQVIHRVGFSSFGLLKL
assay.method.text: Murine CD40/CD154 binding inhibition assay
condition: log of IC50, cell-free binding
Give bare numbers.

# example entries with known answers
| compound | Mouse CD40/CD154 log IC50 |
| --- | --- |
| O=C(Nc1ccc2c(O)c(N=Nc3ccc(N=Nc4ccc(S(=O)(=O)[O-])cc4)cc3)c(S(=O)(=O)[O-])cc2c1)c1ccccc1.[Na+].[Na+] [Direct red 81, direct red 81] | −4.47 |
| O.O=C([O-])c1ccccc1-c1c2cc(I)c(=O)c(I)c-2oc2c(I)c([O-])c(I)cc12.[Na+].[Na+] [Erythrosin B (FD&C red 3), Erythrosin B, reference compound] | −5.23 |

// each compound listed below needs its Mouse CD40/CD154 log IC50
1. Cc1cc(S(=O)(=O)[O-])ccc1N=Nc1ccc(N=Nc2c(O)ccc3cccc(S(=O)(=O)[O-])c23)c(C)c1.[Na+].[Na+] [Crocein scarlet 7B, crocein scarlet 7B]
2. Nc1ccc2cc(S(=O)(=O)[O-])cc(O)c2c1N=Nc1ccc(NC(=O)Nc2ccc(N=Nc3c(N)ccc4cc(S(=O)(=O)[O-])cc(O)c34)c(S(=O)(=O)[O-])c2)cc1S(=O)(=O)[O-].[Na+].[Na+].[Na+].[Na+] [Direct red 75 (chlorazol fast pink), direct red 75]

Result string:
−4.86
−5.13

---

assayed.system: human CD40/CD154 (Homo sapiens, UniProt P29965)
Construct: CD154 (soluble human, FLAG-tagged, recombinant from Alexis Biochemicals; MW=18 kDa); purchased Alexis Biochemicals
Sequence (P29965 113-261 limits assumed): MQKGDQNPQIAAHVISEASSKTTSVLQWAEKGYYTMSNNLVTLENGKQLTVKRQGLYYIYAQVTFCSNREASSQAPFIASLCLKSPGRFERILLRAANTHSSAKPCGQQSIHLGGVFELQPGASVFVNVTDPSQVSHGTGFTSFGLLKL
assay.method.text: Human CD40/CD154 binding inhibition assay (cell-free, plate-based)
condition: cell-free binding; read-out: Human CD40/CD154 IC50
Give measured IC50 for each item. Keep answers brief.
Answers are plain numbers, in µM.

| molecule | assay.metric | observed.value |
| --- | --- | --- |
| O=C(Nc1ccc2c(O)c(N=Nc3ccc(N=Nc4ccc(S(=O)(=O)[O-])cc4)cc3)c(S(=O)(=O)[O-])cc2c1)c1ccccc1.[Na+].[Na+] | IC50 | 13.6 |
| O=C(Nc1ccc2c(O)c(N=Nc3ccc(N=Nc4ccc(S(=O)(=O)[O-])cc4)cc3S(=O)(=O)[O-])c(S(=O)(=O)[O-])cc2c1)Nc1ccc2c(O)c(N=Nc3ccc(N=Nc4ccc(S(=O)(=O)[O-])cc4)cc3S(=O)(=O)[O-])c(S(=O)(=O)[O-])cc2c1.[Na+].[Na+].[Na+].[Na+].[Na+].[Na+] | IC50 | 1.8 |

// each molecule listed below needs its IC50
1. CCOc1ccc(N=Nc2ccc(-c3ccc(N=Nc4c(O)ccc5cc(S(=O)(=O)[O-])cc(S(=O)(=O)[O-])c45)cc3)cc2)cc1.[Na+].[Na+]
2. O=S(=O)([O-])c1cc(S(=O)(=O)[O-])c2c(N=Nc3ccc(N=Nc4ccccc4)cc3)c(O)ccc2c1.[Na+].[Na+] [Brilliant crocein (crocein scarlet MOO), Brilliant crocein, reference compound]

Result string:
1: 13; 2: 141

Values from patent US20110065675A1
